- assay procedure: AP1 Signaling Pathway (AID 357);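 further: ME-180 reporter cells stimulated with EGF at its EC50 level; on the % scale 0 is the no-effect control and ±100 the full control effect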
- protocol conditions: ME-180 (cervical carcinoma) AP-1-bla reporter, EGF-induced, beta-lactamase ratio, 5 h; at 7.69 µM (top of the series) unless noted
Inconclusive results are not listed.
Recorded activity change, negative = inhibition values for a group of molecules are listed next.
Give the quantity in %, number only.

# smiles input, activity change, negative = inhibition, %
rows = [
    ("O=C(c1cnccn1)N1CCC2(CC1)CN(c1cccc(-c3ccccc3)c1)C2", -8.05),
    ("Cc1noc(C)c1-c1nc(NCc2cccs2)c2ccccc2n1", 3.98),
    ("N#CCCn1c(=O)c(-c2cc(F)cc(F)c2)nc2cnc(N3CCOCC3)nc21", 2.2),
    ("Cc1noc(C)c1C(=O)N1CCC2(CCCN(C(=O)Nc3ccccc3)C2)CC1", -21),
]

Looking up CN(C)c1ccc(-c2nc(NCc3cccnc3)c3ccccc3n2)cc1 , I found its activity change, negative = inhibition recorded as -8.92
